Test system: Mus musculus
Assay: Percent of animals (n=8) not exhibiting PTZ-induced ( Pentylentetrazol protection) seizures 10 min following a 10 mg/kg ip dose of steroid.
Assay type: functional
Details: route intraperitoneal
READOUT: PTZ protection (%)

1) CC(=O)[C@H]1CC[C@H]2[C@@H]3CC[C@@H]4C[C@@](O)(C#Cc5ccc(O)cc5)CC[C@]4(C)[C@H]3CC[C@]12C	0
2) COc1ccc(C#C[C@@]2(O)CC[C@@]3(C)[C@H](CC[C@@H]4[C@@H]3CC[C@]3(C)[C@@H](C(C)=O)CC[C@@H]43)C2)cc1	25
3) CC(=O)[C@H]1CC[C@H]2[C@@H]3CC[C@@H]4C[C@@](O)(C#Cc5ccc(C=O)cc5)CC[C@]4(C)[C@H]3CC[C@]12C	0
4) CC(=O)[C@H]1CC[C@H]2[C@@H]3CC[C@@H]4C[C@@](O)(C#Cc5ccc(C(F)(F)F)cc5)CC[C@]4(C)[C@H]3CC[C@]12C	0
5) CC(=O)[C@H]1CC[C@H]2[C@@H]3CC[C@@H]4C[C@@](O)(c5ccccc5)CC[C@]4(C)[C@H]3CC[C@]12C	25
